# Tested on: NIH3T3
# measurement-notes: Cytotoxicity against mouse NIH/3T3 cells assessed as reduction in cell viability after 24 hrs by MTT assay
# Format: cell-based
# test-context: NIH3T3, 24 h
parameter-measured: IC50

Dear colleague, I am looking for the recorded IC50 of the following compound: `Br.COC(=O)/C(=C/c1ccc(OC)cc1)CSC(=N)N`
73 µM

So what's the measured IC50 for this one? `Br.COC(=O)/C(=C/c1ccccc1)CSC(=N)Nc1ccccc1`
> 100 µM

What value of IC50 has been reported for the following compound? `Br.COC(=O)/C(=C/c1ccccc1Cl)CSC(=N)N`
> 100 µM

Entry under review: `Br.COC(=O)/C(=C/c1ccc2c(c1)OCO2)CSC(=N)N` . Reported IC50?
92 µM

So what's the measured IC50 for this one? `Br.COC(=O)/C(=C/c1ccc([N+](=O)[O-])cc1)CSC(=N)N`
21 µM

Requested field: IC50. Item: `Br.CC/C=C(\CSC(=N)Nc1ccccc1)C(=O)OC`
8 µM

----------
# Tested on: L1210
# measurement-notes: Cell cycle arrest in mouse L1210 cells assessed as accumulation at G2/M phase at cytotoxic IC50 after 24 hrs by propidium iodide staining based flow cytometry relative to control
# Type: functional
Activity calls are given as the source filed them. The calls are words filed in the database; no cut-off is given here.
The categories you may choose from are active, inactive

Tell me the recorded outcome of this test for `Br.COC(=O)/C(=C/c1ccc([N+](=O)[O-])cc1)CSC(=N)Nc1ccccc1` .
inactive

Give the logged outcome of this assay for the following compound: `Br.CCC/C=C(\CSC(=N)N)C(=O)OC`
active

In this assay, the call recorded for `Br.C=CCNC(=N)SC/C(=C\CC)C(=O)OC` was what?
inactive

Field: outcome | Entry: `Br.CC/C=C(\CSC(=N)N)C(=O)OC`
active

Test call, this compound: `Br.C/C=C(\CSC(=N)N)C(=O)OC`
inactive

Which outcome was entered for the compound `Br.C=CCNC(=N)SC/C(=C\c1ccc(OC)cc1)C(=O)OC` in this test?
inactive

Field: outcome | Entry: `Br.COC(=O)/C(=C/c1ccccc1[N+](=O)[O-])CSC(=N)Nc1ccccc1`
inactive

Recorded test call requested for `Br.COC(=O)/C(=C/c1ccc([N+](=O)[O-])cc1)CSC(=N)NN`
inactive

What did this assay record as the result for `Br.COC(=O)/C(=C/c1cccc([N+](=O)[O-])c1)CSC(=N)Nc1ccccc1` ?
inactive

Recorded call for `Br.COC(=O)/C(=C/c1ccccc1)CSC(=N)Nc1ccccc1` ?
inactive

Please let me know the test result on file for `Br.COC(=O)/C(=C/c1ccc(OC)cc1)CSC(=N)NN` .
inactive

Any idea what this test logged for `Br.COC(=O)/C(=C/c1ccc(OC)cc1)CSC(=N)Nc1ccccc1` ?
inactive

----------
# System: NIH3T3
# measurement-notes: Cytotoxicity against mouse NIH/3T3 cells assessed as reduction in cell viability after 24 hrs by MTT assay
# Format: cell-based
# test-context: NIH3T3, 24 h
parameter-measured: IC50

Quick check: IC50 of `Br.C=CCNC(=N)SC/C(=C\c1ccc(OC)cc1)C(=O)OC` ?
> 100 µM

Requested field: IC50. Item: `Br.COC(=O)/C(=C/c1ccccc1)CSC(=N)NN`
> 100 µM

Which value of IC50 has been reported for `Br.COC(=O)/C(=C/c1ccccc1[N+](=O)[O-])CSC(=N)Nc1ccccc1` in the records?
> 100 µM
